Molecular target: rat TRPA1 (Rattus norvegicus, UniProt Q6RI86)
Sequence (Q6RI86 whole entry): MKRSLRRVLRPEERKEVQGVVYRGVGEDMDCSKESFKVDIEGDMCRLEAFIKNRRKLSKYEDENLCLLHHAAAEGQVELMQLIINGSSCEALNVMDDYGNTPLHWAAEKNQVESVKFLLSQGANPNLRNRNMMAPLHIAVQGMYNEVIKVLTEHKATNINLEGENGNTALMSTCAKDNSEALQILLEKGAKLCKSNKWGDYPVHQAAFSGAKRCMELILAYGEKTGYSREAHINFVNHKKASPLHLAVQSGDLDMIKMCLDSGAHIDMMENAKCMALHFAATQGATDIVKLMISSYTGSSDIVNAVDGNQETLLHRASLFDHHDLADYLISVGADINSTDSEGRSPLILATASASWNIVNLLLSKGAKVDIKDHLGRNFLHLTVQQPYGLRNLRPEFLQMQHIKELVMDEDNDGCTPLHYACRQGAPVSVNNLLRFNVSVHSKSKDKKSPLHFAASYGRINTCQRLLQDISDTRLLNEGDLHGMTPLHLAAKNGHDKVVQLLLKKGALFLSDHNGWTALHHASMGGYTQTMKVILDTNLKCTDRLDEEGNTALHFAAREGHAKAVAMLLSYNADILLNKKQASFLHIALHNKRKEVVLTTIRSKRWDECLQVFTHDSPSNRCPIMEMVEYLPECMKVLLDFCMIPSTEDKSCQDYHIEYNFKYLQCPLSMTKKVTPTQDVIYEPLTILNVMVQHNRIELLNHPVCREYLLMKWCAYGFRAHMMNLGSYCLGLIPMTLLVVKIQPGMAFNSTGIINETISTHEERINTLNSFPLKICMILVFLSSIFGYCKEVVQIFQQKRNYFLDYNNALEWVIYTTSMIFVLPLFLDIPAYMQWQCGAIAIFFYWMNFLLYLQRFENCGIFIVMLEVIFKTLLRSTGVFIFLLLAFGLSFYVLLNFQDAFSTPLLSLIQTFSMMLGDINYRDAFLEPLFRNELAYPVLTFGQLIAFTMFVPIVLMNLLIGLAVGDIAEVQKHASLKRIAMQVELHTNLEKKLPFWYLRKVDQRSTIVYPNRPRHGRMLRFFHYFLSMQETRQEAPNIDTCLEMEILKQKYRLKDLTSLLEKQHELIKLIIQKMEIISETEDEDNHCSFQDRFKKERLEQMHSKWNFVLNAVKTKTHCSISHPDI
Assay: Agonist-induced TRPA1 activation in stably expressing CHO cells
Type: cell-based
Settings: rTRPA1 (4-ONE) IC50, 35 µM 4-ONE; stably expressing CHO cells
QUANTITY_MEASURED: pIC50
Just the number, please; pIC50 means minus log10 of the concentration in mol/L.

Task: # pIC50 lookup, item Cn1cnc2ncn(Cc3nc(CCc4ccc(Cl)cc4)no3)c(=O)c21 [AMG0902]
Result: 6.23

###

Target: mouse TRPA1 (Mus musculus, UniProt Q8BLA8)
Sequence (Q8BLA8 whole entry): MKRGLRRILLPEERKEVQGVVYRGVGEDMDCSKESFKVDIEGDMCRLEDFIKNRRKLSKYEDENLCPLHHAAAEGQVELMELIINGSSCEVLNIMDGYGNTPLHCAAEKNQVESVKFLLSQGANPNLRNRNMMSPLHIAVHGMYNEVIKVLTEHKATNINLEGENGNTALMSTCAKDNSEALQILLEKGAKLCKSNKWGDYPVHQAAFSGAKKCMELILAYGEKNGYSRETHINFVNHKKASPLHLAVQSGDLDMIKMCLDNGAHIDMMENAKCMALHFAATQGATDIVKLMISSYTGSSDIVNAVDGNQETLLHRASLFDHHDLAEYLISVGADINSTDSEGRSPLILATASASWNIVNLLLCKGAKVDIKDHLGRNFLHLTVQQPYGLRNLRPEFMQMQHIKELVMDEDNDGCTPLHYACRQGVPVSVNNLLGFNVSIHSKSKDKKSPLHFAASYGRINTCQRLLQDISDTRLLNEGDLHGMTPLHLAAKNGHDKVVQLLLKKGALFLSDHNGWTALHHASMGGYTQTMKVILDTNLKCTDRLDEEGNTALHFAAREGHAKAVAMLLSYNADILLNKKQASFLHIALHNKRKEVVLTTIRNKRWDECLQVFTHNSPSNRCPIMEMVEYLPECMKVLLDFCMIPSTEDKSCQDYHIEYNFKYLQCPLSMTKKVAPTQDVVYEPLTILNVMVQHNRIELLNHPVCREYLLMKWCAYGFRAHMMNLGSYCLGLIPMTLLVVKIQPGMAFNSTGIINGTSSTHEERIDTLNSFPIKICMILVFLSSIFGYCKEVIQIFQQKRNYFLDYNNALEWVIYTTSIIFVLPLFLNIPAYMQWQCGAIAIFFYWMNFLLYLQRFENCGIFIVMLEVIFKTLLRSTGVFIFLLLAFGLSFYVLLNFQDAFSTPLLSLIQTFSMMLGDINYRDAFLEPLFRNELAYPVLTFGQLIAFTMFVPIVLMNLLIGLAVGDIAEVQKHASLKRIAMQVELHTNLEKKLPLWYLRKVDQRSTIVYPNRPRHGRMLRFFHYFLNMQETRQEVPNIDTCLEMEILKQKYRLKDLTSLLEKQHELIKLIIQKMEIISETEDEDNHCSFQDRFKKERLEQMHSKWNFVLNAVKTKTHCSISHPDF
Assay: TRPA1 activation by AITC, antagonist assay
QUANTITY_MEASURED: IC50 (nM)
Numbers only; they are read as nM.

Task: If you can, please state the reported IC50 value of Cn1cnc2ncn(Cc3nc(CCc4ccc(Cl)cc4)no3)c(=O)c21 .
Result: 113

###

Experiment: Pharmacokinetics in plasma and brain
Assay type: in vivo
Conditions: Sprague-Dawley, rat, brain
QUANTITY_MEASURED: Kp
Would you mind answering with just the numeric figure?

Task: Kp for Cn1cnc2ncn(Cc3nc(CCc4ccc(Cl)cc4)no3)c(=O)c21 ?
Result: 0.2

###

Target: rTRPV3 (Rattus norvegicus)
Sequence (Q4QYD9 1-791): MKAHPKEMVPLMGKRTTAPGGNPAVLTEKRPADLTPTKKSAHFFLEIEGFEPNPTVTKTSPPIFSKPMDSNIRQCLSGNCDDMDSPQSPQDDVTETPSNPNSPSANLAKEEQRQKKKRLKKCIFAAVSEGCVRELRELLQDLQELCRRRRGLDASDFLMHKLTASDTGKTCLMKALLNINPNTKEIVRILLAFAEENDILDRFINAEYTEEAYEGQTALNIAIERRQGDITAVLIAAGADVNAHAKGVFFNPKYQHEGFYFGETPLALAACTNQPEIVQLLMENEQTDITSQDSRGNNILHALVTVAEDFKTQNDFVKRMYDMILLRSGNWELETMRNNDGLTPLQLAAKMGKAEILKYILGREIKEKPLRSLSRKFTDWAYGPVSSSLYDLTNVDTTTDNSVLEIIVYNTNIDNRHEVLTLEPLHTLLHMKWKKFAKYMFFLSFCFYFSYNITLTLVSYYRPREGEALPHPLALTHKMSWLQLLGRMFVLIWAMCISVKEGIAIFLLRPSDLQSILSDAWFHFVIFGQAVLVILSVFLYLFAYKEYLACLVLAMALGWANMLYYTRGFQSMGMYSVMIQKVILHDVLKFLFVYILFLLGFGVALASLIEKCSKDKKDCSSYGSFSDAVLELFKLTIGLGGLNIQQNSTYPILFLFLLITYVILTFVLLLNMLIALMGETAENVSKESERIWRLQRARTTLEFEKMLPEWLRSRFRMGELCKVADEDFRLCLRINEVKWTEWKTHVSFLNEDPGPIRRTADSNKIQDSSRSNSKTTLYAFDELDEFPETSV
Assay: TRP channel selectivity, luminescence calcium assay in CHO cells
pIC50: −log10 of the molar value.
QUANTITY_MEASURED: pIC50

Task: Find the recorded pIC50 belonging to Cn1cnc2ncn(Cc3nc(CCc4ccc(Cl)cc4)no3)c(=O)c21 and report it.
Result: < 5.00

###

Molecular target: hTRPV1 (Homo sapiens)
Sequence (Q8NER1 whole entry): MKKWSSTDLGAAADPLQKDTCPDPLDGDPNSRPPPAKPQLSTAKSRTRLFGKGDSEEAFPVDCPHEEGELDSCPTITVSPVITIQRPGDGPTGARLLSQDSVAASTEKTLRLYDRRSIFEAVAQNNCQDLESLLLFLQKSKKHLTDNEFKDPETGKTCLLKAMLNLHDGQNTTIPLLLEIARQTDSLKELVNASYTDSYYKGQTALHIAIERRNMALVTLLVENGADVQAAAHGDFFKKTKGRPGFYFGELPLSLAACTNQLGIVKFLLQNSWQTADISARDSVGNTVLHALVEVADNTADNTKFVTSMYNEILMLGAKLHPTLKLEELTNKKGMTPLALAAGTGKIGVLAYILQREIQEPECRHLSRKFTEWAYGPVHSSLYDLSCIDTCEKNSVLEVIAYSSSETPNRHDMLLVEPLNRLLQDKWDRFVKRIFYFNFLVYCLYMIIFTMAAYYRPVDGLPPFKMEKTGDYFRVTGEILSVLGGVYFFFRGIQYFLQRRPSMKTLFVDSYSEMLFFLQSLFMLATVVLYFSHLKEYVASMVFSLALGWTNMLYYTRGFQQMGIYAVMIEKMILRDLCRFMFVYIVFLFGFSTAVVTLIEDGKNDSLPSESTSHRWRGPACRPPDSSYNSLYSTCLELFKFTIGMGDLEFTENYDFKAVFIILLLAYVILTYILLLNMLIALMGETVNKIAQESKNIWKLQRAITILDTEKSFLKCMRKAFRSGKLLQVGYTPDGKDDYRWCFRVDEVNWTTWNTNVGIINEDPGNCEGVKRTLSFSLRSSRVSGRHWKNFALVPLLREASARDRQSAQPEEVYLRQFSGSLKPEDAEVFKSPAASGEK
Experiment: TRP channel selectivity, calcium assay
QUANTITY_MEASURED: IC50

Task: So what does the record say about IC50 for Cn1cnc2ncn(Cc3nc(CCc4ccc(Cl)cc4)no3)c(=O)c21 [AMG0902] ?
Result: > 10 µM

###

Experiment: Pharmacokinetics in plasma and brain
Type: in vivo
Details: male, Sprague-Dawley, rat, plasma, iv, 2 mg/kg
QUANTITY_MEASURED: clearance (mL/min/kg)
Numbers only here, please. The scale is mL/min/kg.

Task: Fill in: clearance of Cn1cnc2ncn(Cc3nc(CCc4ccc(Cl)cc4)no3)c(=O)c21 is ___
Result: 41.7

###

Target: UniProt Q8R455
Assay: TRP channel selectivity, luminescence calcium assay in CHO cells
QUANTITY_MEASURED: IC50

Task: Which IC50 value is on record for Cn1cnc2ncn(Cc3nc(CCc4ccc(Cl)cc4)no3)c(=O)c21 [AMG0902] ?
Result: > 10 µM

###

Test: Plasma protein binding by ultracentrifugation
Type: in vitro ADME
Conditions: male, rat
QUANTITY_MEASURED: fraction unbound at 15 min, 5 µg/mL

Task: Look up fraction unbound at 15 min, 5 µg/mL: Cn1cnc2ncn(Cc3nc(CCc4ccc(Cl)cc4)no3)c(=O)c21 [AMG0902]
Result: 0.29

###

Target: 40 targets including GPCRs, ion channels, and kinases
Assay: CEREP selectivity profiling
Conditions: read-out: in vitro potency at 40 targets profiled at CEREP
pIC50: −log10 of the molar value.
QUANTITY_MEASURED: pIC50

Task: Requested field: pIC50. Item: Cn1cnc2ncn(Cc3nc(CCc4ccc(Cl)cc4)no3)c(=O)c21
Result: < 5.00

###

Target: rTRPA1 (Rattus norvegicus, UniProt Q6RI86)
Sequence (Q6RI86 whole entry): as the sequence (Q6RI86 whole entry) above
Assay: rTRPA1 agonism assay
pIC50: −log10 of the molar value.
QUANTITY_MEASURED: pIC50

Task: Fill blank: measured pIC50 of the molecule Cn1cnc2ncn(Cc3nc(CCc4ccc(Cl)cc4)no3)c(=O)c21 is ____.
Result: < 4.60

###

Biological target: rat TRPV1 (Rattus norvegicus)
Sequence (O35433 whole entry): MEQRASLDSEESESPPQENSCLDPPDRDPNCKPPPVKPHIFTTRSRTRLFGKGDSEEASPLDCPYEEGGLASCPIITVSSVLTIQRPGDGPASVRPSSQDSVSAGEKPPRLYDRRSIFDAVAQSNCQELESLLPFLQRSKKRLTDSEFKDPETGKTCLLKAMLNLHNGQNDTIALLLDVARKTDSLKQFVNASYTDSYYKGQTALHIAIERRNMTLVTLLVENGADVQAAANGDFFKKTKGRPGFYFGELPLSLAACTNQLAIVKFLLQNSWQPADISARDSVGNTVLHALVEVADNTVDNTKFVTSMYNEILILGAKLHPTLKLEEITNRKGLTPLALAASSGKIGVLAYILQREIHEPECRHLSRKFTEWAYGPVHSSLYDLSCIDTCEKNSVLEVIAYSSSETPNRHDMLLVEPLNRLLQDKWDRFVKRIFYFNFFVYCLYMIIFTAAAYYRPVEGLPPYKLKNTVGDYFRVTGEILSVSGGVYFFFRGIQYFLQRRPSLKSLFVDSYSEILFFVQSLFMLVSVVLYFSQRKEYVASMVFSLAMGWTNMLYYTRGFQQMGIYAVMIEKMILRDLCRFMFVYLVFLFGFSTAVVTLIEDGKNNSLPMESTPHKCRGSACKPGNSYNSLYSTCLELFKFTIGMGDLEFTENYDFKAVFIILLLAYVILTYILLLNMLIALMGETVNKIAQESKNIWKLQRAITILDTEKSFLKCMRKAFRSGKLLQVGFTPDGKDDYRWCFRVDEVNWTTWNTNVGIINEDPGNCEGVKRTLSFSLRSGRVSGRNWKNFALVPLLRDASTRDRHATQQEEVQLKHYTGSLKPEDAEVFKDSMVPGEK
Test: TRP channel selectivity, luminescence calcium assay in CHO cells
QUANTITY_MEASURED: IC50

Task: So what does the record say about IC50 for Cn1cnc2ncn(Cc3nc(CCc4ccc(Cl)cc4)no3)c(=O)c21 [AMG0902] ?
Result: > 10 µM
